- measurement.notes: Solubility determined by HPLC
- Format: physicochemical
- test.parameters: plasma or biological fluid; α-Minimal Essential Media (α-MEM) containing 5% Fetal Calf Serum (FCS)
measured.parameter: solubility (µM)
Number in µM, nothing else.

Query: Please give the measured solubility for this compound: CS(=O)(=O)c1cc([N+](=O)[O-])c(C(N)=O)cc1N(CCBr)CCBr
Reply: 68
